Test system: Colo320
Assay: cells
Type: cell-based
Details: assay number 27; basal
endpoint_label: Basal_Viability ATP Colo 320 IC50/EC50

Solved cases below.
O=C(CCl)c1ccc(Cl)cc1Cl [NCGC00091258-05]
0.5301 µM
c1cnc2cc3c(cc2n1)C1CNCC3C1 [NCGC00247735-02]
> 20 µM
CN(C)CCOC(c1ccccc1)c1ccc(Br)cc1 (centres unmarked) [NCGC00249891-01]
> 20 µM
O=[N+]([O-])c1cccc(S(=O)(=O)NCCNS(=O)(=O)c2cccc([N+](=O)[O-])c2)c1 [NCGC00160679-02]
> 20 µM
Clc1ccc(C(Cn2ccnc2)OCc2ccsc2Cl)c(Cl)c1 (centres unmarked) [NCGC00167430-04]
5.2288 µM

Respectfully, I request Basal_Viability ATP Colo 320 IC50/EC50 for each entry included below.
1. CCOC(=O)c1ccccc1C(=O)OCC [NCGC00090974-06]
2. CCCCC[C@@H](O)CC[C@H]1[C@@H]2Cc3cccc(OCC(=O)O)c3C[C@@H]2C[C@@H]1O [NCGC00319020-01]
3. CCn1cc(C(=O)O)c(=O)c2cnc(N3CCNCC3)nc21 [NCGC00016866-11]

A.
1. > 20 µM
2. > 20 µM
3. > 20 µM

* * *

Tested on: NCI-H716 cells
Assay: cells
Format: cell-based, Human
Settings: assay number 12
endpoint_label: hNCI-H716 GLP1 Secretion IC50/EC50 (µM)
One number for each entry, in µM.

Solved cases below.
Clc1ccc(CSC(Cn2ccnc2)c2ccc(Cl)cc2Cl)cc1.O=[N+]([O-])O (centres unmarked) [NCGC00018250-06]
20.9915
CC(C)(C)CC(C)(C)c1ccc(O)c(Cc2ccc(Cl)cc2Cl)c1 [NCGC00095016-05]
9.073
CCN(CC)CCOc1ccc(C(O)(Cc2ccc(Cl)cc2)c2ccc(C)cc2)cc1 (centres unmarked) [NCGC00165907-03]
36.1068

In the following, a different compound is considered.
Q. Report hNCI-H716 GLP1 Secretion IC50/EC50 on NCI-H716 cells for this entry: [O-][S+](c1cc(Cl)cc(Cl)c1O)c1cc(Cl)cc(Cl)c1O [NCGC00160554-02]
A. 19.7164

* * *

Test system: STC-1 cell line
Type: cell-based, mouse
Conditions: concentration response
Answer each item with its documented IC50/EC50, mSTC-1 GLP1 Secretion (assay number 13).
One number for each entry, in µM.

Respectfully, I request IC50/EC50, mSTC-1 GLP1 Secretion (assay number 13) for each entry included below.
1. NC(=NCCCCCCN=C(N)/N=C(\N)Nc1ccc(Cl)cc1)/N=C(\N)Nc1ccc(Cl)cc1 [NCGC00016246-09]
2. CCOC(=O)[C@@H](N)CS.Cl [NCGC00166061-02]

A.
[10.3287, 14.3442]

* * *

System: HCT116
Assay: cells
Format: cell-based
Details: Homo sapiens, HCT-116, 72 h, read-out: HCT-116 viab. IC50
endpoint_label: pIC50
Answers are plain numbers, as −log10 of the molar value.

Cc1nc2ccc(CN(C)c3ccc(C(=O)N[C@@H](CCC(=O)O)C(=O)O)s3)cc2c(=O)[nH]1 [raltitrexed, reference compound]
8.40

Q. Report pIC50 on HCT116 for this entry: COc1cc(NCc2ccc3nc(N)nc(N)c3c2C)cc(OC)c1OC [trimetrexate, reference compound]
A. 7.64

// data source = paper PMC4503722
